# ASSAY CONDITIONS: in n-butyl acetate, 283.15 K
METRIC NAME: solubility (mole fraction)

Which solubility (mole fraction) is reported for this compound? `CS(=O)(=O)OCCCCOS(C)(=O)=O`
0.000289

====

# ASSAY CONDITIONS: in NMP, 323.15 K
METRIC NAME: solubility (mole fraction)
Field format: numeric only.

Which value of solubility (mole fraction) has been reported for `CS(=O)(=O)OCCCCOS(C)(=O)=O` in the records?
0.102

====

# ASSAY CONDITIONS: in n-butyl acetate, 298.15 K
METRIC NAME: solubility (mole fraction)
Enter the number alone.

Entry `CS(=O)(=O)OCCCCOS(C)(=O)=O` : reported solubility (mole fraction) = ?
0.000785
